Taken from PubChem BioAssay (NCI).

Tested on: SK-MEL-28 melanoma
ASSAY EXPLANATION: NCI-60 one-dose screen, 48 h (100 = growth as untreated, 0 = no growth, -100 = all killed)
CONDITIONS: 10 µM
Compounds without any hit were thinned out: in the full panel of roughly 83,000, 20% have a hit.
In this section, each of the compounds is paired with its reported growth.

>  <COMPOUND>
COc1ccc(NC(=O)c2sc3nc4c(cc3c2N)C(O)CCC4)cc1 (stereo not given)

>  <growth, %>
102

$$$$
>  <COMPOUND>
FC(F)(F)c1ccc(-c2cnc(Cl)nc2NC2CCCCCC2)cc1

>  <growth, %>
37.6

$$$$
>  <COMPOUND>
C#C[C@]1(O)CC[C@H]2[C@@H]3CC[C@H]4CC(F)(F)CC[C@]4(C)[C@H]3CC[C@@]21C

>  <growth, %>
74.4

$$$$
>  <COMPOUND>
COc1cc(NS(C)(=O)=O)ccc1Nc1c2ccc(Cl)cc2nc2c(OC)cccc12

>  <growth, %>
52.4

$$$$
>  <COMPOUND>
CCOC(=S)Sc1ccc([N+](=O)[O-])cc1[N+](=O)[O-]

>  <growth, %>
67.5

$$$$
>  <COMPOUND>
C=CCOc1ccc2c(c1)CC=C1[C@@H]2CC[C@]2(C)C(=O)/C(=N/O)C[C@@H]12

>  <growth, %>
105

$$$$
>  <COMPOUND>
COc1ccc(Cn2cc3c(c2-c2cc(OC)c(OC)c(OC)c2)CCc2cnoc2-3)cc1[N+](=O)[O-]

>  <growth, %>
68.9

$$$$
>  <COMPOUND>
CCN(CC)CCn1c(=N)n(CC(O)c2ccc(Cl)c(Cl)c2)c2ccccc21 (stereo not given)

>  <growth, %>
10.4

$$$$
>  <COMPOUND>
Cc1cc2cc3c(=O)[nH]c(=O)cc-3n(CC(O)C(O)C(O)CO)c2cc1C (stereo not given)

>  <growth, %>
114

$$$$
>  <COMPOUND>
Oc1ccc(Cn2cc3c(c2-c2ccccc2)CCc2cnoc2-3)cc1

>  <growth, %>
101

$$$$
